Target: Protein polybromo-1 (Homo sapiens)
Sequence (Q86U86 whole entry, the tested form may be a part): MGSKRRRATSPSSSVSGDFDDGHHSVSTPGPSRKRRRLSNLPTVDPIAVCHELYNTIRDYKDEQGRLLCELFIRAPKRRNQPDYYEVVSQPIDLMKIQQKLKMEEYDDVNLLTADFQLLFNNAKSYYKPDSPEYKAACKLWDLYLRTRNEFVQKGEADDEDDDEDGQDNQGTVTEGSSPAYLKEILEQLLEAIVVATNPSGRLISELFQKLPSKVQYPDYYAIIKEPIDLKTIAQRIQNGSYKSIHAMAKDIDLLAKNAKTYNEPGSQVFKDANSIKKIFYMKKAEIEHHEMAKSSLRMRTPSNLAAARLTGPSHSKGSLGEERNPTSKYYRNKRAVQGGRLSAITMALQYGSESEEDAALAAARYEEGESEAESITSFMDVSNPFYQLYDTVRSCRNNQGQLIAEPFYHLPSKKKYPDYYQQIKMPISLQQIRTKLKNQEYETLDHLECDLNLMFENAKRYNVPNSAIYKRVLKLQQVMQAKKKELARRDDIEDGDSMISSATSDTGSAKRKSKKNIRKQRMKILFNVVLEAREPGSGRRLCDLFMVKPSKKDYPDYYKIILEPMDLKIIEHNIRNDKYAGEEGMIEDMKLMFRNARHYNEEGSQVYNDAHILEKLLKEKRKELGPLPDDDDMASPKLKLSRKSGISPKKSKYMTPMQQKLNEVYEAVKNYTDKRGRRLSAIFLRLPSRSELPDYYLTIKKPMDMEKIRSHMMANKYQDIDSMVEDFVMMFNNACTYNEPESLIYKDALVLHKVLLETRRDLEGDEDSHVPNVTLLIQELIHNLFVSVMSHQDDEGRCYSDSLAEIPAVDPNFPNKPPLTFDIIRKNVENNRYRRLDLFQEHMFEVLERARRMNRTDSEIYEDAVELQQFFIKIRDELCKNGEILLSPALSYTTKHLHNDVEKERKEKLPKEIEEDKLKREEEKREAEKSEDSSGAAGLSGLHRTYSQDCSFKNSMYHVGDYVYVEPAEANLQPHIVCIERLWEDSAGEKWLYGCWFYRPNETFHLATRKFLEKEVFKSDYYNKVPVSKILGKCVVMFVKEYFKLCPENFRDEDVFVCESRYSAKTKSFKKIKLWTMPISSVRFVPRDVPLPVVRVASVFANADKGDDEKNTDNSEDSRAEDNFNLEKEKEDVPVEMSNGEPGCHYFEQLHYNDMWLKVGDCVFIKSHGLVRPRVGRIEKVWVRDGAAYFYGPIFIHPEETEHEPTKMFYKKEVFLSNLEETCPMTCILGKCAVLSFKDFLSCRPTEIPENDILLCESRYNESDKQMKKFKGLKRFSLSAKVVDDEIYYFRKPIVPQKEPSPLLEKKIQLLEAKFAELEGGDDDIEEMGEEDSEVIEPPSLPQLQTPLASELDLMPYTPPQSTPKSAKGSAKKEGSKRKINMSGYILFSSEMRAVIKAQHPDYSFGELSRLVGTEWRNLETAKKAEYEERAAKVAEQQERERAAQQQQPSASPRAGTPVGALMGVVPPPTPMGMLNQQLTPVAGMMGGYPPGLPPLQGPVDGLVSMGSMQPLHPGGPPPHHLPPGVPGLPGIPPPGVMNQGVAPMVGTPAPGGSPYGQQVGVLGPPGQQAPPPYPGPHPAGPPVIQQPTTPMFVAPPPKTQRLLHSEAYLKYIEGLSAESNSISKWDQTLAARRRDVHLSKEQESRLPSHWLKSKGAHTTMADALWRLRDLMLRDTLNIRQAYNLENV
Experiment: Binding affinity to human partial length PBRM1 bromodomain 5 (S645 to D766 residues) expressed in bacterial expression system by BROMOscan assay
Measured Kd, listed per entry.

| Line notation | System tested | Kd |
| --- | --- | --- |
| C/C=C/Cn1cc(-c2ccc(C(C)(C)O)cc2OC)c2cc[nH]c2c1=O | Protein polybromo-1 (Homo sapiens) | > 10 µM |

Kd for `C/C=C/Cn1cc(-c2ccc(C(=O)N3CCOCC3)cc2)c2cc[nH]c2c1=O` ? 26 µM

Follow-up entry: `C/C=C/Cn1cc(-c2cc(OC)c(C(=O)N3CCOCC3)cc2OC)c2cc(C)[nH]c2c1=O` > 10 µM

Follow-up entry: `C/C=C/Cn1cc(-c2cc(OC)c(C(C)(C)O)cc2OC)c2cc(C)[nH]c2c1=O` > 10 µM

Reference source for all entries: ChEMBL document CHEMBL5260810
